Origin of the recorded values: patent US5464739A

# Target System: human leukocyte elastase (HLE) (Homo sapiens, UniProt P08246)
# Sequence (P08246 30-247): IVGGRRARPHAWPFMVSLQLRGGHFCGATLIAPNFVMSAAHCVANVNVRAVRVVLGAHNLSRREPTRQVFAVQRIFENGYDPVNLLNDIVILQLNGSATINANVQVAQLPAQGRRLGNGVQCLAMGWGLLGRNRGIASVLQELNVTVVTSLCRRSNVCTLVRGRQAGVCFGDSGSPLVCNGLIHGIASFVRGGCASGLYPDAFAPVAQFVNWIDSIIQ
# Assay Protocol: Dry phase test strip assay of chromogenic substrates for HLE (reflectance at 557 nm, K/S)
# Assay type: biochemical
# Condition Context: HLE 48 ng/mL; response at 120 seconds; diazonium salt NDNSA; 557 nm
Property Measured: K/S
// no unit, no text: just the number

// solved cases for K/S follow
CCCS(=O)(=O)N[C@@H](C)C(=O)Oc1c[nH]c(-c2ccccc2)c1
0.881
COC(=O)CCS(=O)(=O)N[C@@H](C)C(=O)Oc1c[nH]c(-c2ccccc2)c1
0.976
CCCS(=O)(=O)O[C@@H](C)C(=O)Oc1c[nH]c(-c2ccccc2)c1
1.049

From here, focus on the item given below.
Prompt: // lookup K/S | system=human leukocyte elastase (HLE) (Homo sapiens, UniProt P08246) | key= COC(=O)CCS(=O)(=O)O[C@@H](C)C(=O)Oc1c[nH]c(-c2ccccc2)c1
Response: 0.916

---

Recorded K/S values for a group of compounds are listed next.
# Target System: human leukocyte elastase (HLE) (Homo sapiens, UniProt P08246)
# Assay Protocol: Dry phase test strip assay of chromogenic substrates for HLE (reflectance at 557 nm, K/S)
# Format: biochemical
# Condition Context: HLE 19 ng/mL; response at 120 seconds; diazonium salt NDNSA; 557 nm
// no unit, no text: just the number

// solved cases for K/S follow
Cc1ccc(S(=O)(=O)N[C@@H](C)C(=O)Oc2c[nH]c(-c3ccccc3)c2)cc1
0.308
C[C@H](OC(=O)c1ccccc1)C(=O)Oc1c[nH]c(-c2ccccc2)c1 [Ph--CO--R--OPP, R = Lactate (XI), PhCO-(L)-Lac--OPP]
0.106
CCCS(=O)(=O)O[C@@H](C)C(=O)Oc1c[nH]c(-c2ccccc2)c1
0.498
Cc1ccc(S(=O)(=O)O[C@@H](C)C(=O)Oc2c[nH]c(-c3ccccc3)c2)cc1
0.348

Prompt: May I ask what K/S has been recorded for COC(=O)CCS(=O)(=O)O[C@@H](C)C(=O)Oc1c[nH]c(-c2ccccc2)c1 ?
Response: 0.514

Prompt: May I ask what K/S has been recorded for COC(=O)CCS(=O)(=O)N[C@@H](C)C(=O)Oc1c[nH]c(-c2ccccc2)c1 ?
Response: 0.435

Prompt: May I ask what K/S has been recorded for C[C@H](NC(=O)c1ccccc1)C(=O)Oc1c[nH]c(-c2ccccc2)c1 ?
Response: 0.039

Prompt: May I ask what K/S has been recorded for CCCS(=O)(=O)N[C@@H](C)C(=O)Oc1c[nH]c(-c2ccccc2)c1 ?
Response: 0.363
